Task for the reader: assign each of the following compounds its reported TGI.
# Tested on: NCI-H226 lung
# MEASUREMENT DESCRIPTION: NCI tumour cell line growth inhibition, 48 h

Solved entries:
{"SUBSTANCE SMILES": "Cc1cc(NS(=O)(=O)c2ccc(-c3cnc(C4CC4)o3)cc2)ccc1Cl", "TARGET OR TEST SYSTEM": "NCI-H226 lung", "TGI": "17.5 µM"}
{"SUBSTANCE SMILES": "CN1C(=O)[C@@H](CC2CCCC2)N(C2CCCC2)c2nc(Nc3cc(Cl)c(O)c(Cl)c3)ncc21", "TARGET OR TEST SYSTEM": "NCI-H226 lung", "TGI": "> 100 µM"}
{"SUBSTANCE SMILES": "Oc1c(Cl)cc(Cl)c(Cl)c1Cc1c(O)c(Cl)cc(Cl)c1Cl", "TARGET OR TEST SYSTEM": "NCI-H226 lung", "TGI": "13 µM"}
{"SUBSTANCE SMILES": "CSc1ccccc1NC1=NCCO1", "TARGET OR TEST SYSTEM": "NCI-H226 lung", "TGI": "> 100 µM"}

Please turn your attention to the following entry.
Ask | Supply TGI value. Item: `CN(C)/C=N/c1cc(=O)n(C)c(=O)n1C`
Reply | > 100 µM

###

# System: HCC-2998 colon
# MEASUREMENT DESCRIPTION: NCI tumour cell line growth inhibition, 48 h; in the data active = GI50 below about 0.43 µM; inactive = the rest
*1 amine or outer side, *2 acyl side, *3 side chain or, on linkers, in order; H or OH if unused. Where a SMILES comes first, the peptide text is derived from it. Bridges are numbered along the chain shown (N, C = ends). Roman numbers before positions name the chains, in order. [ ]: non-standard residue; d: D form. Actinocin(1to9) = Cc1c2oc3c(C)ccc(C(=O)[*:2])c3nc-2c(C(=O)[*:1])c(N)c1=O; NMeV = CN[CH](C(=O)O)C(C)C; Sar = CNCC(=O)O
// classify into active, inactive

Illustrative cases are given below, each with its answer.
{"MOLECULE": "Cn1ccc(S(=O)(=O)N2CCC[C@H](Nc3nccc(-c4c(-c5cccc(O)c5)nc5occn45)n3)C2)n1", "TARGET OR TEST SYSTEM": "HCC-2998 colon", "CATEGORY": "inactive"}
{"MOLECULE": "COc1ccc(CC2NC(=O)C(NC(=O)c3c4nc5c(C(=O)NC6C(=O)NC(Cc7ccc(OC)cc7)C(=O)N7CCCC7C(=O)N(C)CC(=O)N(C)C(C(C)C)C(=O)OC6C)ccc(C)c5oc-4c(C)c(=O)c3N)C(C)OC(=O)C(C(C)C)N(C)C(=O)CN(C)C(=O)C3CCCN3C2=O)cc1 (stereo unspecified) (I: TY(Me)P[Sar][NMeV] / II: TY(Me)P[Sar][NMeV]; ester I:1-I:C, II:1-II:C; linker I:N-II:N via Actinocin(1to9); configuration not given here)", "TARGET OR TEST SYSTEM": "HCC-2998 colon", "CATEGORY": "active"}
{"MOLECULE": "O=C(NNC1=NS(=O)(=O)c2ccccc2N1c1ccccc1)c1cnccn1", "TARGET OR TEST SYSTEM": "HCC-2998 colon", "CATEGORY": "inactive"}

Ask | Which outcome was assigned to `Cc1c(Br)c(Br)c2c3c1nc(N1CCNCC1)n3CCC2` in this test?
Reply | inactive

Ask | Which outcome was assigned to `Cn1cc(Nc2nccc(-c3ccc4c(c3)CN(C3COC3)CC[C@H]4NC(=O)c3cn(C(C)(C)C)nn3)n2)cn1` in this test?
Reply | inactive

Ask | Which outcome was assigned to `CCN(CC)Cc1cc(Nc2ccnc3ccc(OC)cc23)ccc1O` in this test?
Reply | inactive

###

# Tested on: T-47D breast
# MEASUREMENT DESCRIPTION: NCI tumour cell line growth inhibition, 48 h; in the data active = GI50 below about 0.43 µM; inactive = the rest
// classify into 1 = active, 0 = inactive

{"MOLECULE": "C=CCc1cc(O)ccc1O", "CATEGORY": 0}
{"MOLECULE": "CC(C)(Oc1cccc(N2CCC[C@@H](C(=O)N(Cc3ccc(-c4cn[nH]c4)cc3)C3CC3)C2)c1)C(=O)N1CCNCC1", "CATEGORY": 0}
{"MOLECULE": "Cc1cc(NS(=O)(=O)c2ccc(-c3cnc(C4CC4)o3)cc2)ccc1Cl", "CATEGORY": 1}
{"MOLECULE": "CC(=O)CCC[C@@H](C)[C@@H]1O[C@H]([C@@]2(C)CCC(=O)O2)CC2[C@H]1OC(=O)C21CC1 (some centres undefined)", "CATEGORY": 0}
{"MOLECULE": "CCOC(=O)C(Cc1ccccc1)n1c(O)c(/C=N/c2ncc(Cc3ccc(Cl)cc3Cl)s2)sc1=S (centres undefined)", "CATEGORY": 0}
{"MOLECULE": "Cc1cc2c3c(nc4ccccc42)C(=O)c2cccnc2-c3n1", "CATEGORY": 0}
{"MOLECULE": "CC(C)N(CCNc1nc(C(Cl)(Cl)Cl)nc2cc(Cl)ccc12)C(C)C", "CATEGORY": 0}
{"MOLECULE": "c1ccc(C2=Nc3ccccc3N3CNN=C23)cc1", "CATEGORY": 0}

Ask | Which outcome was assigned to `COc1cc(C(=O)/C=C/c2cccnc2Nc2ccc(Cl)cc2)cc(OC)c1OC` in this test?
Reply | 0

###

Task for the reader: assign each of the following compounds its reported TGI.
# System: HCC-2998 colon
# MEASUREMENT DESCRIPTION: NCI tumour cell line growth inhibition, 48 h

{"COMPOUND": "Nc1ccc(C2(c3ccc(N)cc3)C3CC4CC(C3)CC2C4)cc1", "REPORTED PROPERTY": "TGI", "OBSERVED MEASUREMENT": "41 µM"}
{"COMPOUND": "CN(C)C12C=CC=CC3=C(c4ccccc4)C(c4ccccc4)=C(c4ccccc4)C31c1ccccc1C2 (stereo not given)", "REPORTED PROPERTY": "TGI", "OBSERVED MEASUREMENT": "> 100 µM"}
{"COMPOUND": "C/C=C(/C)C(=O)OC1C=C(CO)C(=O)C(OC(=O)C2(C)OC2C)C1C(C)C (stereo not given)", "REPORTED PROPERTY": "TGI", "OBSERVED MEASUREMENT": "3.22 µM"}
{"COMPOUND": "COC(=O)COc1ccccc1/C=C1/N=C(c2ccccc2)N(c2c(C)n(C)n(-c3ccccc3)c2=O)C1=O", "REPORTED PROPERTY": "TGI", "OBSERVED MEASUREMENT": "> 100 µM"}

Would you be so kind as to report TGI for each listed record?
1. CC1=C(C)C2(C#N)C(=O)N3C(=NC(c4ccco4)NC3c3ccco3)C2(C#N)C(c2ccco2)N1 (stereo not given)
2. S=c1[nH]nc(COc2ccc(Cl)cc2)n1-c1ccccc1
3. CNc1ccc(C)cc1S(=O)(=O)c1ccccc1[N+](=O)[O-]
4. CN(C)CC1CCCC/C1=N\OC(=O)c1ccccc1 (stereo not given)

Reply |
["> 100 µM", "> 100 µM", "> 100 µM", "> 100 µM"]

Would you be so kind as to report TGI for each listed record?
1. O=C(CCl)N1CCN(c2ccccn2)CC1
2. O=C1NC(=Nc2ccccc2Cl)N/C1=C\c1c(Cl)cccc1Cl

Reply |
35.8 µM
55.3 µM

###

# Test system: KM12 colon
# MEASUREMENT DESCRIPTION: NCI tumour cell line growth inhibition, 48 h
Task for the reader: assign each of the following compounds its reported TGI.

{"COMPOUND": "CN(C)Cc1ccc(O)c(CN(C)C)n1", "TARGET OR TEST SYSTEM": "KM12 colon", "REPORTED PROPERTY": "TGI", "OBSERVED MEASUREMENT": "> 100 µM"}
{"COMPOUND": "CN1C(=O)C(O)CC1c1ccccc1F (configuration not stated)", "TARGET OR TEST SYSTEM": "KM12 colon", "REPORTED PROPERTY": "TGI", "OBSERVED MEASUREMENT": "> 100 µM"}

Would you be so kind as to report TGI for each listed record?
1. O=c1c2c3c(sc2nc2n1sc1nc4sc5c(c4c(=O)n12)CCCC5)CCCC3
2. Cc1ccc(S(=O)(=O)NC(=O)NC(CCCCN)C(=O)O)cc1 (configuration not stated)
3. C=C1C(=O)O[C@H]2C(=O)[C@H](C)CCC/C(C)=C/CC[C@@]3(C)O[C@@H]3C[C@@H]12
4. CC(=O)O[C@H]1[C@@H](OC2CCCC2(c2ccccc2)c2ccccc2)O[N+]([O-])=C[C@@H]1c1ccccc1 (some centres not stated)
5. Fc1ccc(C2CC(c3cccc(Nc4ccncc4)c3)=NN2c2ccccc2)cc1 (configuration not stated)
6. CC(=O)c1ccc(NC(=O)C(=O)CC(=O)c2sc(-n3nc(-c4ccccc4)cc3-c3ccccc3)nc2C)cc1

Reply |
1: > 100 µM; 2: > 100 µM; 3: 22.3 µM; 4: 23.4 µM; 5: 3.07 µM; 6: > 100 µM

Would you be so kind as to report TGI for each listed record?
1. CC(C)(Oc1cccc(N2CCC[C@@H](C(=O)N(Cc3ccc(-c4cn[nH]c4)cc3)C3CC3)C2)c1)C(=O)N1CCNCC1
2. CC1(C)COC(c2cccc(C(O)c3ccc(Cl)cc3)c2)=N1 (configuration not stated)

Reply |
28.8 µM
> 100 µM

Would you be so kind as to report TGI for each listed record?
1. COC1(OC)CCCCCCCCC(OC)(OC)CCCCCCCC1
2. COc1cccc(N2C(=N)/C(=C3\Nc4ccccc4S3)CC2=O)c1

Reply |
1. > 100 µM
2. > 100 µM
